Assay: Stat Signaling Pathway (AID 446);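 further: SIE-controlled beta-lactamase reporter measured as 460/530 nm FRET emission ratio; on the % scale 0 is the no-effect control and ±100 the full control effect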
Conditions: ME-180 (cervical carcinoma) SIE beta-lactamase reporter, IL-6 stimulated, 5 h; at 7.69 µM (top of the series) unless noted
Experimental: NCGC Assay Overview: The IL-6/STAT signaling pathway was assayed in ME-180 cervical carcinoma cells by a beta-lactamase reporter gene controlled by a STAT Inducible Element (SIE). This reporter is induced by IL-6 at 40 pM AC50 and inhibited by the pan JAK inhibitor, 2-(1,1-Dimethylethyl)-9-fluoro-3,6-dihydro-7H-benz[h]-imidaz[4,5-f]isoquinolin-7-one, at approximately 10 nM AC50. Plated cells were incubated overnight and on the following day, stimulated with 40 pM IL-6 for 5 hrs. […]
Records with an inconclusive call do not appear. Activity calls are given as the source filed them. The call rests on the fitted dose curve; in most records, active means well fitted curve in either direction with a large enough effect (not every such curve was filed as active); inconclusive means small, poorly fitted or top-dose-only effect, or another doubt; inactive means flat fitted curve, though single readings scatter.
For each record, write down the corresponding activity, negative = inhibition.

Sample answers from the record:
# compound, readout_type, result
measured = [
    ("COc1ncc2ncc(=O)n(CCC#N)c2n1", "activity, negative = inhibition", "-9.79% (inactive)"),
    ("Cc1ccccc1-c1nc(-n2ccnc2)c2ccccc2n1", "activity, negative = inhibition", "0.874% (inactive)"),
    ("CC12CC[C@@H]3c4ccc(OS(=O)(=O)O)cc4CC[C@H]3C1CCC2=O (stereo partly specified)", "activity, negative = inhibition", "-9.95% [at 17.2 µM] (inactive)"),
    ("c1ccc(C(c2ccccc2)N2CCC3(CCNCC3)CC2)cc1", "activity, negative = inhibition", "0.474% (inactive)"),
    ("Cc1nc2cnc(N3CCN(C)CC3)nc2n(C2CC2)c1=O", "activity, negative = inhibition", "-9.11% (inactive)"),
]

Alright, here's another compound for you.
// activity, negative = inhibition lookup, key: `CN(C)C(=O)c1ccc(-c2cncnc2N(C)Cc2ccco2)cc1`
3.83% (inactive)
